From: patent US9556165B2

Property: MIC strain 19 (E. coli J62-TEM-3 + 4 μg/mL clavulanic acid); scope: individual molecules
Test system: Bacteria
TEST_DETAILS: MIC determination in combination with β-lactamase inhibitors (constant 4 μg/mL)
Assay type: cell-based
EXPERIMENTAL_PARAMETERS: strain 19; E. coli J62-TEM-3 + 4 μg/mL clavulanic acid
# value in µg/mL; strip the unit string

Examples from the recorded data:
| MOLECULE | UNIT_TAG | OBSERVED_MEASUREMENT |
| --- | --- | --- |
| C[C@H]1[C@H](NC(=O)/C(=N\OCCOc2cccc(C(=N)N)c2)c2csc(N)n2)C(=O)N1S(=O)(=O)O [Example 53] | µg/mL | 1 |
| CNC(=N)c1ccc(OCCO/N=C(\C(=O)N[C@@H]2C(=O)N(S(=O)(=O)O)[C@H]2C)c2csc(N)n2)cc1 [Example 68] | µg/mL | 0.125 |
| C[C@H]1[C@H](NC(=O)/C(=N\OCCOc2ccc(C(=N)NCCN)cc2)c2csc(N)n2)C(=O)N1OCS(=O)(=O)O [Example 77] | µg/mL | 1 |
| C[C@H]1[C@H](NC(=O)/C(=N\OCCOc2cc(C(=N)N)nn2C)c2csc(N)n2)C(=O)N1S(=O)(=O)O [Example 71] | µg/mL | 2 |
| CC1(C)[C@H](NC(=O)/C(=N\OCCOc2ccc(C(=N)N)cc2)c2csc(N)n2)C(=O)N1OCS(=O)(=O)O [Example 90] | µg/mL | 0.5 |

Task: Dear colleague, I am looking for the recorded MIC strain 19 (E. coli J62-TEM-3 + 4 μg/mL clavulanic acid) of the following molecule: CC(C)NC(=N)c1ccc(OCCO/N=C(\C(=O)N[C@@H]2C(=O)N(S(=O)(=O)O)[C@H]2C)c2csc(N)n2)cc1 [Example 54]
Output: 0.5

* * *

Tested on: strain 19
TEST_DETAILS: MIC determination, broth microdilution (CLSI)
Type: cell-based
READOUT_NAME: MIC (µg/mL)
# value in µg/mL; strip the unit string

Examples from the recorded data:
| SMILES_TEXT | MIC (µg/mL) |
| --- | --- |
| C[C@H]1[C@H](NC(=O)/C(=N\OCCOc2ccc(C(=N)N)nc2)c2csc(N)n2)C(=O)N1S(=O)(=O)O | 0.125 |
| C[C@@H]1[C@H](NC(=O)/C(=N\OCCOc2ccc(C(=N)N)cc2)c2csc(N)n2)C(=O)N1S(=O)(=O)O | 0.25 |
| CC1(C)[C@H](NC(=O)/C(=N\OCCOc2ccc(C(=N)NC3CCNCC3)cc2)c2csc(N)n2)C(=O)N1OS(=O)(=O)O | 0.125 |

Next:
Task: Dear colleague, I am looking for the recorded MIC of the following compound: CC1(C)[C@H](NC(=O)/C(=N\OCCOc2ccnc(C(=N)N)c2)c2csc(N)n2)C(=O)N1OS(=O)(=O)O
Output: 0.5

* * *

Property: MIC; scope: individual compounds
System: strain 20
TEST_DETAILS: MIC determination, broth microdilution (CLSI)
Format: cell-based
Please report the result as a number followed by the unit.

Examples from the recorded data:
| SMILES_TEXT | MIC |
| --- | --- |
| C[C@H]1[C@H](NC(=O)/C(=N\OCc2cc(C(=N)N)cs2)c2csc(N)n2)C(=O)N1S(=O)(=O)O | 2 mg/L |
| C[C@H]1[C@H](NC(=O)/C(=N\OCCOc2ccc(C(=N)NO)cc2)c2csc(N)n2)C(=O)N1S(=O)(=O)O | 1 mg/L |

Next:
Task: Report MIC for C[C@H]1[C@H](NC(=O)/C(=N\OCCNc2ccc(C(=N)N)cc2)c2csc(N)n2)C(=O)N1S(=O)(=O)O tested on strain 20.
Output: 4 mg/L

* * *

Tested on: strain 20
TEST_DETAILS: MIC determination, broth microdilution (CLSI)
Format: cell-based
READOUT_NAME: MIC (µg/mL)
# value in µg/mL; strip the unit string

Examples from the recorded data:
| SMILES_TEXT | UNIT_TAG | OBSERVED_MEASUREMENT |
| --- | --- | --- |
| C[C@@H]1[C@H](NC(=O)/C(=N\OCCOc2ccc(C(=N)N)cc2)c2csc(N)n2)C(=O)N1OS(=O)(=O)O | µg/mL | 0.5 |
| C[C@H]1[C@H](NC(=O)/C(=N\OC(C)(C)COc2ccc(C(=N)N)cc2)c2csc(N)n2)C(=O)N1S(=O)(=O)O | µg/mL | 2 |
| CC1(C)[C@H](NC(=O)/C(=N\OCCOc2ccc(C(=N)NCCN)cc2)c2csc(N)n2)C(=O)N1OS(=O)(=O)O | µg/mL | 0.25 |
| CC1(C)[C@H](NC(=O)/C(=N\OCCOc2ccc(C3=NCCN3)cc2)c2csc(N)n2)C(=O)N1OS(=O)(=O)O | µg/mL | 0.125 |

Next:
Task: Dear colleague, I am looking for the recorded MIC of the following molecule: CC1(C)[C@H](NC(=O)/C(=N\OCCOc2cnc(C(=N)N)c(O)c2)c2csc(N)n2)C(=O)N1OS(=O)(=O)O
Output: 0.25

* * *

System: P. aeruginosa PAO1
TEST_DETAILS: MIC determination, broth microdilution (CLSI)
Format: cell-based
EXPERIMENTAL_PARAMETERS: Pseudomonas aeruginosa, PAO1, strain 6
Property: MIC; scope: individual compounds
# value in µg/mL; strip the unit string

Examples from the recorded data:
| COMPOUND | TARGET_OR_TEST_SYSTEM | UNIT_TAG | OBSERVED_MEASUREMENT |
| --- | --- | --- | --- |
| C[C@H]1[C@H](NC(=O)/C(=N\OCc2cc(C(=N)N)cs2)c2csc(N)n2)C(=O)N1S(=O)(=O)O | P. aeruginosa PAO1 | µg/mL | 16 |
| C[C@@H]1[C@H](NC(=O)/C(=N\OCCOc2ccc(C(=N)N)cc2)c2csc(N)n2)C(=O)N1S(=O)(=O)O | P. aeruginosa PAO1 | µg/mL | 1 |
| C[C@H]1[C@H](NC(=O)/C(=N\OCCOc2nnc(C(=N)N)s2)c2csc(N)n2)C(=O)N1S(=O)(=O)O | P. aeruginosa PAO1 | µg/mL | 16 |
| CC1(C)[C@H](NC(=O)/C(=N\OCCOc2ccc(C(=N)N3CCNCC3)cc2)c2csc(N)n2)C(=O)N1OS(=O)(=O)O | P. aeruginosa PAO1 | µg/mL | 16 |
| CC1(C)[C@H](NC(=O)/C(=N\OCCOc2ccc(C(=N)NC3CNNC3)cc2)c2csc(N)n2)C(=O)N1OS(=O)(=O)O | P. aeruginosa PAO1 | µg/mL | 8 |
| CC1(C)[C@H](NC(=O)/C(=N\OCCOc2ccc(C(=N)NC3CCNCC3)cc2)c2csc(N)n2)C(=O)N1OS(=O)(=O)O | P. aeruginosa PAO1 | µg/mL | 2 |
| CC1(C)[C@H](NC(=O)/C(=N\OCCOc2ccc(C(=N)N)cc2)c2csc(N)n2)C(=O)N1OS(=O)(=O)O | P. aeruginosa PAO1 | µg/mL | 4 |
| CC1(C)[C@H](NC(=O)/C(=N\O[C@@H](COc2ccc(C(=N)NC3CNCC3N)cc2)C(=O)O)c2csc(N)n2)C(=O)N1OS(=O)(=O)O (stereo partly drawn) | P. aeruginosa PAO1 | µg/mL | 1 |

Task: Report MIC for C[C@H]1[C@H](NC(=O)/C(=N\OCCOc2cc(C(=N)N)nn2C)c2csc(N)n2)C(=O)N1S(=O)(=O)O tested on P. aeruginosa PAO1.
Output: 16

Task: Report MIC for C[C@H]1[C@H](NC(=O)/C(=N\OCCCOc2ccc(NC(=N)N)cc2)c2csc(N)n2)C(=O)N1S(=O)(=O)O tested on P. aeruginosa PAO1.
Output: 16

Task: Report MIC for CC1(C)[C@H](NC(=O)/C(=N\OCCOc2ccc(C(=N)NCCN)nc2)c2csc(N)n2)C(=O)N1OS(=O)(=O)O tested on P. aeruginosa PAO1.
Output: 8

Task: Report MIC for C[C@H]1[C@H](NC(=O)/C(=N\OCCOc2ccc(C(=N)N)cc2)c2csc(N)n2)C(=O)N1OS(=O)(=O)O tested on P. aeruginosa PAO1.
Output: 4

* * *

Property: MIC; scope: individual molecules
Test system: P. aeruginosa 2297 (AmpC wt)
TEST_DETAILS: MIC determination, broth microdilution (CLSI)
Assay type: cell-based
EXPERIMENTAL_PARAMETERS: Pseudomonas aeruginosa, strain 7
# value in µg/mL; strip the unit string

| MOLECULE | UNIT_TAG | MIC |
| --- | --- | --- |
| C[C@H]1[C@H](NC(=O)/C(=N\OCCOc2ccc(C(=N)N)cc2N)c2csc(N)n2)C(=O)N1S(=O)(=O)O | µg/mL | 16 |
| CC1(C)[C@H](NC(=O)/C(=N\OCCOc2ccc(C(=N)NCCN)nc2)c2csc(N)n2)C(=O)N1OS(=O)(=O)O | µg/mL | 16 |
| C[C@H]1[C@H](NC(=O)/C(=N\OCCOc2ccc(C(=N)N)cc2)c2csc(N)n2)C(=O)N1OS(=O)(=O)O | µg/mL | 2 |
| CC1(C)[C@H](NC(=O)/C(=N\OC(COc2ccc(C(=N)N)cc2)C(N)=O)c2csc(N)n2)C(=O)N1OS(=O)(=O)O (some centres unmarked) | µg/mL | 16 |
| CC1(C)[C@H](NC(=O)/C(=N\O[C@@H](COc2ccc(C(=N)NC3CNCC3N)cc2)C(=O)O)c2csc(N)n2)C(=O)N1OS(=O)(=O)O (some centres unmarked) | µg/mL | 2 |

Task: Dear colleague, I am looking for the recorded MIC of the following molecule: C[C@@H]1[C@H](NC(=O)/C(=N\OCCCOc2ccc(C(=N)N)cc2)c2csc(N)n2)C(=O)N1S(=O)(=O)O
Output: 16

Task: Dear colleague, I am looking for the recorded MIC of the following molecule: CC1(C)[C@H](NC(=O)/C(=N\O[C@@H](COc2ccc(C(=N)N[C@H]3CCNC3)cc2)C(=O)O)c2csc(N)n2)C(=O)N1OS(=O)(=O)O
Output: 1

Task: Dear colleague, I am looking for the recorded MIC of the following molecule: CC1(C)[C@H](NC(=O)/C(=N\O[C@@H](COc2ccc(C(=N)N[C@@H]3CCCNC3)cc2)C(=O)O)c2csc(N)n2)C(=O)N1OS(=O)(=O)O
Output: 1

Task: Dear colleague, I am looking for the recorded MIC of the following molecule: C[C@H]1[C@H](NC(=O)/C(=N\OCCOc2ccc(C(=N)NN)cc2)c2csc(N)n2)C(=O)N1S(=O)(=O)O
Output: 16

Task: Dear colleague, I am looking for the recorded MIC of the following molecule: CC1(C)[C@H](NC(=O)/C(=N\OCc2ccc(C(=N)N)cc2)c2csc(N)n2)C(=O)N1OS(=O)(=O)O
Output: 32
